target: Toxoplasma gondii prolyl-tRNA synthetase (TgPRS) (Toxoplasma gondii, UniProt S8G8I1); construct: gene TGME49_219850; length 334–830; experiment: co-crystal structure with L-pro; aminoacylation inhibition (malachite green); thermal shift (ΔTm […] °C with L-Pro); format: biochemical
Sequence (S8G8I1 entry or part of it): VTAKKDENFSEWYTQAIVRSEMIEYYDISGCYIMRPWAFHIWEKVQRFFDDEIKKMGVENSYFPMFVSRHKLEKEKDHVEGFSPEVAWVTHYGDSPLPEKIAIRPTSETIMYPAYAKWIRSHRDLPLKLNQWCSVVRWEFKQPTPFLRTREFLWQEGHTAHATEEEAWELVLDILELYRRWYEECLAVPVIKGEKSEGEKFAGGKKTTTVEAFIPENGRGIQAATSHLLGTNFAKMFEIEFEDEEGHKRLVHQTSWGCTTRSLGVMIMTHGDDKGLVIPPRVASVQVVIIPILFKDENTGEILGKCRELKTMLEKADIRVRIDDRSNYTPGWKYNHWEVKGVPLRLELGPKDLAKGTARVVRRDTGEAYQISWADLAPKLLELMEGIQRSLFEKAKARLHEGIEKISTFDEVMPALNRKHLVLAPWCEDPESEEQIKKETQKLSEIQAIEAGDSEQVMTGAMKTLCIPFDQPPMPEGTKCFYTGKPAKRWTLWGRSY
Measured Attribute: pIC50
Entry type: numeric. Quantity: pIC50, the -log10 of concentration in molar units.

Q) Answer briefly: pIC50 recorded on Toxoplasma gondii prolyl-tRNA synthetase (TgPRS) (Toxoplasma gondii, UniProt S8G8I1) for Cc1cc(N2CCC(CO)(C3CC3)C2=O)cc(C(=O)NCc2cc(F)cc(-c3cnn(C)c3)c2)n1 (stereo not shown) [L97]
A) 7.30

----------
molecular target: Toxoplasma gondii prolyl-tRNA synthetase (TgPRS) (Toxoplasma gondii, UniProt S8G8I1); construct: gene TGME49_219850; length 334–830; test: co-crystal structure with L-pro; aminoacylation inhibition (malachite green); thermal shift (ΔTm […] °C with L-Pro); assay type: biochemical
Measured Attribute: pIC50
Note on units: pIC50 is unitless, being -log10 of a concentration expressed in mol/L.

Q) # return recorded pIC50 for input Cc1cc(N2CC[C@@](C#N)(C3CC3)C2=O)cc(NC(=O)Cc2ccccc2)n1 [L95]
A) 6.85

----------
system: Toxoplasma gondii WT; construct: RH; assay: microbe, parasite or virus in culture; set-up: species or system human foreskin fibroblasts (HFF); T. gondii RH NLuc tachyzoite growth in HFF monolayer, Nano-Glo luciferase luminescence; conditions: Fibroblast, 48 h, read-out: EC50 Treated-L36 (nM)
Measured Attribute: EC50 (nM)
Expressed in nM, but write only the number.

Q) State its EC50 for this compound: `Cc1cc(N2CC[C@](C#N)(C3(C)CC3)C2=O)cc(C(=O)NCc2cc(F)cc(-c3cnn(C)c3)c2)n1`
A) 5800

All figures here come from paper PMC9974123.
